Data provenance is patent US8461329B2.

Experimental Target: human CRTH2 expression cell KB8 (Homo sapiens)
Construct: host or cells: KB8 cells (human CRTH2 expression cell)
Protocol Details: CRTH2 binding test (3H-PGD2 binding to KB8 cells)
Condition Notes: 3H-PGD2 5 nM, 4° C., one hour, IC50 class, read-out: binding inhibitory activity
Assay Endpoint: IC50

{"columns": ["Compound", "Assay Endpoint", "Result"],
 "data": [
  ["O=C(O)Cc1cnc(C(=O)c2ccc(C(=O)Nc3ccc(Cl)c(Cl)c3)cc2)c2ccccc12 [Example 136]", "IC50", "< 50 nM"],
  ["O=C(O)Cc1cnc(C(=O)c2ccc(NC(=O)c3ccc(Cl)cc3)cc2)c2ccccc12 [Example 29]", "IC50", "< 50 nM"],
  ["O=C(O)Cc1cnc(Cc2ccc(NC(=O)c3ccc(Cl)c(Cl)c3)cc2)c2ccccc12 [Example 148]", "IC50", "< 50 nM"],
  ["O=C(O)Cc1cnc(C(=O)c2ccc(NC(=O)c3ccc(-c4ccccc4)cc3)cc2)c2ccccc12 [Example 10]", "IC50", "< 50 nM"],
  ["O=C(O)Cc1cnc(C(=O)c2ccc(OCCOc3ccc(Cl)cc3)cc2)c2ccccc12 [Example 143]", "IC50", "< 50 nM"],
  ["O=C(O)Cc1cnc(C(=O)c2ccc(NC(=O)C3(c4ccc(Cl)c(Cl)c4)CC3)cc2)c2ccccc12 [Example 5]", "IC50", "< 50 nM"],
  ["O=C(O)Cc1cnc(C(=O)c2ccc(NC(=O)COc3ccc(Cl)c(Cl)c3)cc2)c2ccccc12 [Example 23]", "IC50", "< 50 nM"],
  ["O=C(O)Cc1cnc(Cc2ccc(C(=O)NCCc3ccc(Cl)cc3)cc2)c2ccccc12 [Example 153]", "IC50", "< 50 nM"]
]}

* * *

A collection of compounds and their measured pIC50
Experimental Target: CRTH2 (KB8 cells) (Homo sapiens)
Construct: host or cells: KB8 cells (human CRTH2 expression cell)
Sequence (Q9Y5Y4 1-395): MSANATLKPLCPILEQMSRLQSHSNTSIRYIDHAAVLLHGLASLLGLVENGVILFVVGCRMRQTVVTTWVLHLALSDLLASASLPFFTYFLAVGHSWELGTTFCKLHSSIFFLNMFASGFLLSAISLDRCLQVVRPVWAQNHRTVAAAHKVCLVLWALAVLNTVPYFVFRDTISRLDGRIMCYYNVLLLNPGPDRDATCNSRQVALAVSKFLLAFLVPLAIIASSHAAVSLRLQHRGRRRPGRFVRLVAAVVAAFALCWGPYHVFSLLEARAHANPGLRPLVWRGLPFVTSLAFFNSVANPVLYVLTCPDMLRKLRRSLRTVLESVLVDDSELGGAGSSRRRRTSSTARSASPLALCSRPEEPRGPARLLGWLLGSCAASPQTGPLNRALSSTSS
Protocol Details: CRTH2 antagonist test (PGD2-induced intracellular calcium ion concentration increase in KB8 cells)
Assay type: cell-based
Condition Notes: PGD2 final concentration 100 nM, Fluo-4-AM fluorescence, read-out: antagonist activity (IC50 value, inhibition of calcium ion concentration increase)
pIC50: −log10 of the molar value.
Assay Endpoint: pIC50

{"columns": ["Compound", "Experimental Target", "Result"],
 "data": [
  ["O=C(O)Cc1cnc(Cc2ccc(C(=O)NCCc3c(F)cccc3Cl)cc2)c2ccccc12 [Example 190]", "CRTH2 (KB8 cells) (Homo sapiens)", "6.30 to 7.30"],
  ["O=C(O)Cc1cnc(C(=O)c2ccc(NC(=O)c3cccc(Cl)c3F)cc2)c2ccccc12 [Example 70]", "CRTH2 (KB8 cells) (Homo sapiens)", "6.30 to 7.30"],
  ["O=C(O)Cc1cnc(Cc2ccc(C(=O)NCCc3cc(C(F)(F)F)cc(C(F)(F)F)c3)cc2)c2ccccc12 [Example 222]", "CRTH2 (KB8 cells) (Homo sapiens)", "> 7.30"],
  ["O=C(O)Cc1cnc(C(=O)c2ccc(NC(=O)Cc3ccc(Cl)c(Cl)c3)cc2)c2ccccc12 [Example 3]", "CRTH2 (KB8 cells) (Homo sapiens)", "> 7.30"]
]}
